Source: ChEMBL document CHEMBL5257152

- Test details: Selectivity index, ratio of IC50 for mouse 3T3 cells to IC50 for mouse J774.A1 cells

{"Smiles": "Cc1cc(=O)oc2cc(OCCn3cc(CO)nn3)ccc12", "Ratio IC50": 0.037}
{"Smiles": "Cc1cc(=O)oc2cc(OCCn3cc(-c4ccccc4)nn3)ccc12", "Ratio IC50": 0.072}
{"Smiles": "Cc1cc(=O)oc2cc(O)ccc12", "Ratio IC50": 0.171}
{"Smiles": "Cc1cc(=O)oc2cc(OCCn3cc(COc4cccc5c(C)cc(=O)oc45)nn3)ccc12", "Ratio IC50": 0.001}

---

- System: NIH3T3
- Test details: Antioxidant activity in mouse 3T3 cells assessed as reduction in ROS level at 0.1 to 5 uM incubated for 24 hrs by DCFH-DA dye based fluorescence microplate reader analysis
- Assay type: functional, cell-based
- Condition set: dose 0.1-5 µM
Active and inactive are the calls of the source. The rule behind the calls is not given here.
Labels: Yes for active, No for inactive

{"Compound": "Cc1cc(=O)oc2cc(OCCn3cc(-c4ccccc4)nn3)ccc12", "Target under test": "NIH3T3", "Discrete label": "No"}
{"Compound": "Cc1cc(=O)oc2cc(OCCn3cc(COc4cccc5c(C)cc(=O)oc45)nn3)ccc12", "Target under test": "NIH3T3", "Discrete label": "Yes"}
{"Compound": "Cc1cc(=O)oc2cc(O)ccc12 [HYMECROMONE]", "Target under test": "NIH3T3", "Discrete label": "Yes"}
{"Compound": "Cc1cc(=O)oc2cc(OCCn3cc(CO)nn3)ccc12", "Target under test": "NIH3T3", "Discrete label": "Yes"}
{"Compound": "Cc1cc(=O)oc2cc(OCCn3cc(CCN4C(=O)c5ccccc5C4=O)nn3)ccc12", "Target under test": "NIH3T3", "Discrete label": "No"}

---

- Test system: NIH3T3
- Test details: Disruption of mitochondrial membrane potential in mouse 3T3 cells at 0.1 to 5 uM incubated for 24 hrs by […] inclusion assay
- Type: toxicity, cell-based
- Condition set: nih3t3, 24 h, dose 0.1-5 µM

{"Smiles": "Cc1cc(=O)oc2cc(O)ccc12", "Activity": "Non-Toxic"}
{"Smiles": "Cc1cc(=O)oc2cc(OCCn3cc(CCN4C(=O)c5ccccc5C4=O)nn3)ccc12", "Activity": "Toxic"}
{"Smiles": "Cc1cc(=O)oc2cc(OCCn3cc(COc4cccc5c(C)cc(=O)oc45)nn3)ccc12", "Activity": "Toxic"}
{"Smiles": "Cc1cc(=O)oc2cc(OCCn3cc(-c4ccccc4)nn3)ccc12", "Activity": "Toxic"}
{"Smiles": "Cc1cc(=O)oc2cc(OCCn3cc(CO)nn3)ccc12", "Activity": "Non-Toxic"}

---

- Test details: Selectivity index, ratio of IC50 for mouse 3T3 cells to IC50 for human SiHa cells
- Type: toxicity
- Condition set: 3T3 cells and SiHa cells, read-out: Ratio IC50
Listed compounds paired with reported selectivity ratio

{"Compound": "Cc1cc(=O)oc2cc(OCCn3cc(COc4cccc5c(C)cc(=O)oc45)nn3)ccc12", "Result comparator": "=", "selectivity ratio": 0.001}
{"Compound": "Cc1cc(=O)oc2cc(OCCn3cc(-c4ccccc4)nn3)ccc12", "Result comparator": "<", "selectivity ratio": 0.001}
{"Compound": "Cc1cc(=O)oc2cc(OCCn3cc(CO)nn3)ccc12", "Result comparator": "=", "selectivity ratio": 0.002}
{"Compound": "Cc1cc(=O)oc2cc(OCCn3cc(CCN4C(=O)c5ccccc5C4=O)nn3)ccc12", "Result comparator": "<", "selectivity ratio": 0.001}
{"Compound": "Cc1cc(=O)oc2cc(O)ccc12 [HYMECROMONE]", "Result comparator": "=", "selectivity ratio": 0.011}
